Tested on: T. cruzi Tulahuen C4 intracellular amastigotes
Assay: β-D-galactosidase transgenic T. cruzi assay (intracellular amastigotes in L6 cells, CPRG)
Format: cell-based
Details: Trypanosoma cruzi, TULAHUEN, L6; T. cruzi amastigotes, 96-hour treatment, 50 µM; read-out: Growth inhibition (%) Average
Procedure: The Trypanosoma cruzi Tulahuen strain used is a genetically modified strain that expresses the Escherichia coli β-galactosidase gene, lacZ [31]. It was kindly supplied by Marcel Kaiser (Swiss Tropical and Public Health Institute). The T. cruzi Tulahuen C4 strain was cultured in RPMI-1640 supplemented with 10% inactivated FBS (iFBS), 1.7 mM L-glutamine, 100 U/mL penicillin, and 100 U/mL streptomycin at 37°C and 5% CO2. […]
value kind: inhibition at 50 µM (%)
Write it as a number; the unit % goes unstated.

# example entries with known answers
C/C1=C\[C@H](C)CCC(=O)/C(C)=C/[C@H](C)C[C@@H](C)CC[C@@H]([C@@H](C)C(=O)O)OC(=O)[C@@H](C)C1 [Strasseriolide A, strasseriolide A] ... 86.7
C/C1=C\[C@H](C)C(=O)C[C@@H](O)/C(C)=C/[C@H](C)C[C@@H](C)CC[C@@H]([C@@H](C)C(=O)O)OC(=O)[C@@H](C)C1 [Strasseriolide C, strasseriolide C] ... 115

Kindly note the recorded inhibition at 50 µM for C/C1=C\[C@H](C)[C@@H](O)C[C@@H](O)/C(C)=C/[C@H](C)C[C@@H](C)CC[C@@H]([C@@H](C)C(=O)O)OC(=O)[C@@H](C)C1 [Strasseriolide D, strasseriolide D] , which is 113

O=C(Cn1ccnc1[N+](=O)[O-])NCc1ccccc1 [Benznidazole, benznidazole] yielded inhibition at 50 µM of 105

The reported value for C/C1=C\[C@H](C)CC[C@@H](O)/C(C)=C/[C@H](C)C[C@@H](C)CC[C@@H]([C@@H](C)C(=O)O)OC(=O)[C@@H](C)C1 [Strasseriolide B, strasseriolide B] in terms of inhibition at 50 µM is 117
